Values compiled from patent US10640506B2.

Biological target: JAK2 (a.a. 828-1132) (Homo sapiens, UniProt O60674)
Construct: JAK2 (a.a. 828-1132); His tag (N)
Sequence (O60674 828-1132): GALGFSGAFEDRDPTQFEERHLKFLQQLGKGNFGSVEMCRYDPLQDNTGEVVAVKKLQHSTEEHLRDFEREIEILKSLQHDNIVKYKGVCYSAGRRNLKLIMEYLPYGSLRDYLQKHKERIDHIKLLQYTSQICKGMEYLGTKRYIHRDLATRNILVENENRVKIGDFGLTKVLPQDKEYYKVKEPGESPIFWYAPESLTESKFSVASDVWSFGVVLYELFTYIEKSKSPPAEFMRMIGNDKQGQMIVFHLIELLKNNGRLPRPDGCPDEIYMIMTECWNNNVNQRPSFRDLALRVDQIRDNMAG
Assay: In vitro JAK kinase assay (HTRF, phosphorylation of biotinylated peptide), JAK2
Format: biochemical
Conditions: Table B; 1 mM ATP; read-out: JAK2 IC50
pIC50: −log10 of the molar value.
measured metric: pIC50

Problem: Enter reported pIC50 observed with JAK2 (a.a. 828-1132) (Homo sapiens, UniProt O60674) for CN(C)C(=O)N1CCN([C@H]2C[C@](CC#N)(n3cc(-c4ncnc5[nH]ccc45)cn3)C2)CC1
Result: < 7.00

Problem: Cool, now N#CC[C@]1(n2cc(-c3ncnc4[nH]ccc34)cn2)C[C@H](N2CCN(C(=O)c3cc(F)cnc3Cl)CC2)C1
Result: 7.60 to 8.00

Consider the additional compound presented here.
Problem: Enter reported pIC50 observed with JAK2 (a.a. 828-1132) (Homo sapiens, UniProt O60674) for N#CC[C@]1(n2cc(-c3ncnc4[nH]ccc34)cn2)C[C@H](N2CCN(Cc3c(F)ccc(F)c3Cl)CC2)C1 [Example 16b]
Result: 7.00 to 7.60
